Tested on: NCI/ADR-RES ovarian
Assay: NCI-60 one-dose screen, 48 h (100 = growth as untreated, 0 = no growth, -100 = all killed)
Details: 10 µM unless noted
The panel holds about 83,000 compounds, 20% with a hit somewhere; the sample as a whole holds those more often. Active and inactive are the calls of the source. How the source made its calls: active means growth percent below 10; inactive means the rest.
Answer each item with its documented growth.

For orientation, consider the following solved cases.
compound | growth
Cc1ccc(S(=O)(=O)/C(=C\c2ccc(Cl)cc2)C(=O)c2ccccc2)cc1 | 104% (inactive)
COc1ccc(Nc2nn3c(C)cc(C)nc3c2C(=O)Nc2ccc(C)cc2)c(OC)c1 | 105% (inactive)
O=C(c1ccccc1)C1OC1c1ccc([N+](=O)[O-])cc1 (stereo not given) | 57.9% (inactive)
CCCCCCCCCCCCNC(=O)[C@H]1CSC(c2cc(Br)cs2)N1 (stereo not given in full) | -22.3% (active)

Hello, I would appreciate it if you could give growth for each entry below.
1. Cc1csc(NC(c2ccc(Br)cc2)c2c(C)nc3ccccn23)n1 (stereo not given)
2. Cc1ccc(-c2cc3nc(-c4ccccc4)nc(C(Cl)Cl)n3n2)cc1
3. Cc1ccc2[nH]c(=O)c3c(c2c1)Oc1ncn2nc(-c4ccco4)nc2c1C3c1ccc(Cl)cc1 (stereo not given)
4. Cc1ccc(S(=O)(=O)NCCCNc2cc(-c3cn(C(C)(C)C)nc3-c3cccc(O)c3)ccn2)cc1
5. CC(=O)Nc1ccc(/C=C/C(=O)c2ccccc2)cc1

95.4% (inactive)
-30.7% (active)
94.9% (inactive)
72.4% (inactive)
103% (inactive)

Recorded growth (compound O=c1cc(Cc2ccc([N+](=O)[O-])cc2)[nH]c(=O)[nH]1 ): 109% (inactive)

Entry source: PubChem BioAssay (NCI)
